The origin of these recorded values is PubChem BioAssay (NCI).

Reported TGI values are given for each entry in this list.
- Test system: HOP-18 NSCLC
- assay_protocol: NCI tumour cell line growth inhibition, 48 h

### Prompt Read off the recorded TGI for CN/N=C(/CCN1CCCC1)CC(c1ccccc1)c1c(O)c2ccccc2oc1=O (stereo unspecified)
### Response > 100 µM

### Prompt Consider the compound Cc1ccc(Nc2nc3c(s2)C(=O)c2ccccc2C3=O)c(C)c1 . State its measured TGI.
### Response 20.1 µM

### Prompt For the compound Cc1noc(C)c1CCCOC1COc2ccccc2OCCOCCOc2ccccc2OC1 , report TGI.
### Response > 100 µM

### Prompt Give reported TGI value for CC(C)=CCc1c(O)cc(O)c2c1OC(c1ccc(O)cc1)C(O)C2=O (stereo unspecified)
### Response 43.4 µM

###

- Tested on: HS 578T breast
- assay_protocol: NCI tumour cell line growth inhibition, 48 h
readout_label: TGI (µM)
Report as a plain number; the unit µM is understood.

The examples below pair each entry with its known result.
COc1ccc2c(c1)C(=O)c1c-2n(CCCn2ccnc2)c(=O)c2ccccc12; 17.8
CCN(CC)CCN1CC(O)=C(c2nc(-c3ccc(Cl)cc3)cs2)C1=N; 3.59
COc1cc2c(/C=C3/C(=O)Nc4ccc(O)cc43)c(Cl)n(Cc3ccccc3)c2cc1C; 3.36
CN(C)CCCn1c2c(c3ccccc3c1=O)C(=O)c1ccccc1-2; 38
COc1cc(NC(=O)c2cc(O)c(CC=C(C)C)c(O)c2)cc2c1O[C@]1(C)CC[C@@H](O)C(C)(C)[C@H]1C2; 15.5

### Prompt Find TGI for O=C(CC(O)(C(F)(F)F)C(F)(F)F)C(c1ccccc1)C(O)(C(F)(F)F)C(F)(F)F (stereo unspecified) on HS 578T breast and write it down.
### Response 41.8

### Prompt # lookup: HS 578T breast TGI, key = C/C(Cl)=N/OC(=O)Nc1ccc(F)c([N+](=O)[O-])c1
### Response 16.4

### Prompt Name the recorded TGI of CCOc1cccc(C=Nc2ccccc2SSc2ccccc2N=Cc2cccc(OCC)c2O)c1O , assay system HS 578T breast.
### Response 90.7

### Prompt // fetch TGI for O=C1NC(=O)c2ccc([N+](=O)[O-])c3cccc1c23 ; system: HS 578T breast
### Response 61

###

- Test system: SK-MEL-28 melanoma
- assay_protocol: NCI tumour cell line growth inhibition, 48 h
readout_label: TGI

COc1ccc(NC(=S)Nc2cc(C)ccn2)cc1; > 100 µM
NC(N)=NCCCn1c2c(c3ccccc3c1=O)C(=O)c1ccccc1-2; > 100 µM
COc1c2c(cc3nc4ccccc4nc13)CCC(C(C)(C)O)C2 (centres undefined); > 100 µM
Cc1cn2c(/C=C3/C(=O)N(C)c4ccccc43)c(C)nc2s1; 53.4 µM
Cc1ccc(C(=NN=C(N)N)c2ccc(C)cc2)cc1; 6.7 µM

### Prompt Provide measured TGI value, entry: Nc1ccc(/C=C/c2ccnc3ccccc23)cc1
### Response > 100 µM

### Prompt Report TGI for CC(NC(=O)OCc1ccccc1)NC(=O)OC(C)(C)C (centres undefined)
### Response > 100 µM

### Prompt Check the records and state TGI for Cc1cccc(N/C(=C(/C(Cl)=C(Cl)Cl)[N+](=O)[O-])n2nnc3ccccc32)c1
### Response 28.1 µM

### Prompt Provide measured TGI value, entry: C1C2CC3CC1CC(c1nn4c(C56CC7CC(CC(C7)C5)C6)nnc4s1)(C2)C3
### Response > 100 µM

### Prompt Query TGI for O=S(=O)(O)CCSSCCS(=O)(=O)O
### Response > 1000 µM

### Prompt Give reported TGI value for COc1ccc(C2C(C(=O)O)=C(CO)Oc3cc4c(cc32)OCO4)cc1 (centres undefined)
### Response > 100 µM

### Prompt Hello, please tell me recorded TGI for this one: Cc1ccc(N(C(=O)CC(=O)NN)C(=O)c2ccccc2Cl)cc1
### Response > 100 µM

### Prompt For the compound CCN(CC)c1ccc(C(=N)c2ccc(N(CC)CC)cc2)cc1 , report TGI.
### Response 2.81 µM

### Prompt Indicate the recorded TGI value for this compound: COc1ccc2c(c1)C=C([N+](=O)[O-])C(C1OC(C)(C)OC1C1COC(C)(C)O1)O2 (centres undefined)
### Response 3.83 µM

###

The following compounds are listed with their measured GI50 values.
- Test system: SF-268 CNS
- assay_protocol: NCI tumour cell line growth inhibition, 48 h

Answered cases to consult:
CN(C)CCCn1c2c(c3ccccc3c1=O)C(=O)c1ccccc1-2; 2710 nM
O=C(CCl)Nc1ccc(Cl)cc1; 2720 nM
Fc1cc(F)c(COc2cc(Cn3cnc4c(Cl)nc(Cl)nc43)ccc2C23CC4CC(CC(C4)C2)C3)cc1F; 16400 nM

### Prompt Dear colleague, please send me the reported GI50 for Cc1cc(C)c(C(=O)CC(=O)c2cccnc2)c(C)c1 when you can.
### Response 10500 nM

### Prompt State, in one line, measured GI50 of CCN(CC)c1sc(N(CC)CC)c2c1SSSSS2
### Response 1960 nM

### Prompt Identify GI50 associated with the compound Nc1ncc(-c2cnn(CCO)c2)c2scc(-c3ccc(NC(=O)Nc4cccc(F)c4)cc3)c12
### Response 435 nM

### Prompt Item CCOC(=O)c1c(CN2CCN(c3ccccc3)CC2)n(-c2ccccc2)c2cc(Br)c(O)cc12 : provide GI50
### Response 9630 nM

### Prompt Fill in GI50 for record CC(=O)OC1CC(O)C23COC(O)C1(C)C2CC(O)C1(C)C3C(=O)C(O)C2(C)C(c3ccoc3)CC3OC321 (stereo not drawn)
### Response 2200 nM

###

- System: NCI-H226 lung
- assay_protocol: NCI tumour cell line growth inhibition, 48 h
Each entry below lists one item and its recorded TGI value.

CCN(CC)CCCC(C)Nc1c(C)cnc2cc(Cl)c(C)cc12 (stereo unspecified); 15 µM
O=S(=O)(O)CCSSCCS(=O)(=O)O; > 1000 µM
COC(=O)c1ccccc1/C=C1\Cc2c(C)c3c(c(C)c2C1=O)CCC3; > 100 µM
CCc1[nH]c(=O)nc(N)c1-c1ccc(N2CCCCC2)c([N+](=O)[O-])c1; > 100 µM
COc1ccc2c(c1)C(=O)c1c-2n(CCCn2ccnc2)c(=O)c2ccccc12; 5.58 µM

### Prompt Enter measured TGI, system NCI-H226 lung, for the molecule shown: C1C2CC3CC1CC(c1nn4c(C56CC7CC(CC(C7)C5)C6)nnc4s1)(C2)C3
### Response > 100 µM

###

- Tested on: MALME-3M melanoma
- assay_protocol: NCI tumour cell line growth inhibition, 48 h
readout_label: TGI

### Prompt Give the measured TGI for CC12CCCC(O)C1CCC1=CC3(CCC12)SCCS3 (stereo not given)
### Response > 10 µM

### Prompt # return recorded TGI for input Cc1noc(C)c1CCCOC1COc2ccccc2OCCOCCOc2ccccc2OC1
### Response > 100 µM

###

- Tested on: A549 NSCLC
- assay_protocol: NCI tumour cell line growth inhibition, 48 h
GI50: recorded values

CN(C)CCOc1ccc(/C(=C(/CCCCCCCCCC[P+](c2ccccc2)(c2ccccc2)c2ccccc2)c2ccccc2)c2ccccc2)cc1; 0.0772 µM
COc1ccc(C(=O)c2cc(C)c(OC)c(C)c2)c(OC)c1N(C(=O)C(Cl)Cl)C(=O)C(Cl)Cl; 0.0804 µM
CCC[CH2][Sn]1([CH2]CCC)[O]C(=O)C(C(C)C)N=Cc2ccccc2[O]1 (stereo unspecified); 1.59 µM

### Prompt For A549 NSCLC, give the measured GI50 of the entry CCN(CC)c1ccc(C(=N)c2ccc(N(CC)CC)cc2)cc1
### Response 0.625 µM

### Prompt # return GI50 of CCN(CC)CCCC(C)Nc1c(C)cnc2cc(Cl)c(C)cc12 (stereo unspecified) (system: A549 NSCLC)
### Response 15.1 µM

###

The entries below are paired with their reported TGI.
- Test system: MOLT-4 leukemia
- assay_protocol: NCI tumour cell line growth inhibition, 48 h
Return type: number; implicit unit µM.

CCC1CN2CCc3cc(OC)c(OC)cc3C2CC1CC1c2cc(OC)c(OC)cc2CCN1C(=O)C(N)Cc1ccccc1 (centres undefined); 1.78
O=C(Nc1ccc(Cl)cc1)c1cc(S(=O)(=O)Nc2n[nH]c(Nc3ccc4ccccc4c3)n2)c(SSc2cc(Cl)c(C(=O)Nc3ccc(Cl)cc3)cc2S(=O)(=O)Nc2n[nH]c(Nc3ccc4ccccc4c3)n2)cc1Cl; 42.3
COc1ccccc1C[C@@H]1OC2(C=CC(=O)CC2SC(=O)c2ccccc2)O[C@H]1Cc1ccccc1OC (some centres undefined); 19.5

# next molecule below
### Prompt Give the reported TGI for this molecule. CCC#CC[C@H]1C/C=C2/C(=O)C=C[C@@H]2C/C=C\CCCC(=O)O1
### Response 3.96
